Test Target: human MyD88 (human) (UniProt Q99836)
Experiment Notes: P8 phage display panning on plate-immobilised MyD88, after round 4, NGS
Measurement Kind: Population (%)

WALDELLKILYANETM; 4.05
YLRADDSWFWEKLLYA; 1.57
DYASSTWWLRELLQIA; 1.58
